System: adults of Tetranychus cinnabarinus
procedure_summary: Acaricidal activity against adults in greenhouse (spray on broadbean shoots, mortality after 72 hrs)
Assay type: in vivo
measurement_setup: dose 5 mg/L; spray; 72 hrs
The reader will find reported control against adults of Tetranychus cinnabarinus values listed item by item below.
Only the number, expressed in %, is required.

                                chem_smiles  u  val
0  CO/C=C(/C(=O)OC)c1ccccc1COc1cc(C(F)(F)F)nc(Nc2ccc(Cl)c(C)c2Cl)n1  %  100
1  CO/C=C(/C(=O)OC)c1ccccc1COc1cc(C(F)(F)F)nc(Nc2ccc(F)c(F)c2F)n1  %  100
2  CO/C=C(/C(=O)OC)c1ccccc1COc1cc(C(F)(F)F)nc(Nc2ccc(Cl)cc2Cl)n1  %  100

Fill in the recorded control against adults of Tetranychus cinnabarinus for this molecule, with adults of Tetranychus cinnabarinus as test system: CO/C=C(/C(=O)OC)c1ccccc1COc1cc(C(F)(F)F)nc(Nc2ccc(Cl)c(Cl)c2Cl)n1
100

What measured control against adults of Tetranychus cinnabarinus is associated with CO/C=C(/C(=O)OC)c1ccccc1COc1cc(C(F)(F)F)nc(Nc2ccc(Cl)cc2F)n1 on adults of Tetranychus cinnabarinus?
100

Give adults of Tetranychus cinnabarinus control against adults of Tetranychus cinnabarinus for CO/C=C(/C(=O)OC)c1ccccc1COc1cc(C(F)(F)F)nc(Nc2ccc(F)cc2F)n1
100
